Assay: Drug level in rhesus monkey ileac lymph node at 1 ml/day administered intravaginally for 7 days measured 1 hr after final dose by LC-MS/MS analysis
Assay type: ADME, tissue-based, Macaca mulatta
Conditions: read-out: Drug uptake
readout: concentration at 1 h (ng/g)
Answer in ng/g, number only, no unit symbol.

Challenge: Item under review: Cc1cc(C)c(Nc2ccnc(Nc3ccc([14C]#N)cc3)n2)c(C)c1 [[14C]DAPIVIRINE] . Reported concentration at 1 h?
Response given: 14.9

---

Test: Drug level in rhesus monkey inguinal lymph node at 1 ml/day administered intravaginally for 7 days measured 24 hrs after final dose by LC-MS/MS analysis
Format: ADME, tissue-based, Macaca mulatta
Conditions: read-out: Drug uptake
readout: concentration at 24 h

Challenge: If you can, please state the reported concentration at 24 h value of Cc1cc(C)c(Nc2ccnc(Nc3ccc([14C]#N)cc3)n2)c(C)c1 [[14C]DAPIVIRINE] .
Response given: 1.77 ng/g
